System: LOX IMVI melanoma
ASSAY_SUMMARY: NCI tumour cell line growth inhibition, 48 h
ENDPOINT_NAME: TGI (µM)
Number only, in µM; omit the unit.

Illustrative cases are given below, each with its answer.
CCCCCCCCCCCCCCCCOC[C@@H](COC(c1ccccc1)(c1ccccc1)c1ccccc1)O[P+](=S)OC (some centres not stated) :: 11.3
O=C(Nc1cccc(O)c1)C(=O)C(C(=O)c1ccc(Cl)c(Cl)c1)C1OC(=O)c2ccccc21 (configuration not stated) :: 33.8
Cc1ccc(/C=N/Nc2ccc3ccccc3n2)s1 :: 36.5

Provide measured TGI value, entry: O=[N+]([O-])c1ccc(C=NCC2CCCN3CCCCC23)cc1 (configuration not stated) 30.4

Hello, please tell me recorded TGI for this one: Clc1ccc(C2Nc3ccccc3C3=NCCN32)cc1 (configuration not stated) 36.2
